tested on: SW-620 colon; experiment: NCI-60 one-dose screen, 48 h (100 = growth as untreated, 0 = no growth, -100 = all killed); settings: 10 µM unless noted
About 83,000 compounds went through this panel and 20% of them were active in at least one assay; those are over-represented in the sample as a whole.
The label Fulfilled is reserved for growth strictly under 50%; Not fulfilled covers values equal to or above it.

In [3]: df
Out[3]:
                                   compound       category
0  COc1ccc(-n2c(=S)sc3c(Cl)nc(C)nc32)c(OC)c1      Fulfilled
1  CN(C[C@H]1Cc2c(cccc2N2CCN(c3ncccn3)CC2)CN1)[C@H]1CCCc2cccnc21      Fulfilled
2  O=C(Nc1cccc(-n2cc(-c3ccncc3)c(-c3ccc(Cl)c(O)c3)n2)c1)c1ccccc1  Not fulfilled
3  CN1C=CN(Cc2ccc(-c3ccccn3)nc2)[CH-]1.CN1C=CN(Cc2ccc(-c3ccccn3)nc2)[CH-]1.[Au+3]      Fulfilled
4  S=c1[nH]nc(-c2cc3ccc2CCc2ccc(cc2)CC3)n1-c1ccccc1  Not fulfilled
5          CNc1ccc(Br)c2c1C(=O)c1ccccc1C2=O  Not fulfilled
6  Nc1cccc(-c2nc3sccn3c2-c2ccnc(NCCNS(=O)(=O)c3ccc(C(F)(F)F)cc3)n2)c1  Not fulfilled
7  NC(=S)N/N=C(/CCN1CCCC1)CC(C1=C(O)C2=CCCCC2OC1=O)c1ccccc1 (centres undefined)  Not fulfilled
8  COc1cc(/C=C/c2cc(/C=C/c3ccc(O)c(OC)c3)n(C(N)=O)n2)ccc1O      Fulfilled

---

tested on: SR leukemia; test: NCI-60 one-dose screen, 48 h; conditions: 10 µM unless noted
The panel holds about 83,000 compounds, 20% with a hit somewhere; the sample as a whole holds those more often. The source made the active and inactive calls. Rule for the calls: active = growth percent below 10; inactive = the rest.
Outcomes: yes for active, no for inactive

COMPOUND	CATEGORY
CCOc1cc2c(Cl)ncnc2c(OCC)c1OCC	yes
COc1ccc(-c2nc(SCCC(C)C)nc(Nc3ccc(F)c(Cl)c3)c2C#N)cc1	no
CCCCOc1ccc(/C=C2/SC(N3CCCC3)=NC2=O)cc1	no
COc1cc(C(=O)/C=C/c2c(C)n([O-])c3ccc(C(F)(F)F)cc3[n+]2=O)cc(OC)c1OC	no
CCCCCCCCCCCC(=O)NCCC[N+](C)(C)CC(=O)[O-]	no
Nc1nc(-c2ccccc2)c(CCCOc2ccc(NC(=O)CBr)cc2)c(=O)[nH]1	no
COc1ccc(OC)c(/C=C2\Oc3cc(OCCCN4CCCC4)ccc3C2=O)c1	yes
COc1cc(-c2nc(N=Nc3c(O)[nH]c4ccc(Br)cc34)[nH]c(=O)c2C#N)cc(OC)c1OC	no
O=C(NS(=O)(=O)c1ccccc1)n1cc(-c2ccncc2)c(-c2ccc(Cl)c(O)c2)n1	no
CCCCCCCCCCCCNC(=O)[C@H]1CSC(c2cc(Br)cs2)N1 (stereo not given in full)	yes
CC(C)CSc1nc(NN)c(C#N)c(-c2ccccc2)n1	no
CN1CCN(Cc2ccc(NC(=O)c3cncc(C#Cc4cnc(N)c5ccncc45)c3)cc2C(F)(F)F)CC1	no
O=C(/C=C/c1ccccc1)c1cccc(O)c1	yes
C=C[C@@H]1C[C@H](O)Cc2cc(F)ccc2N1	no
CC(=O)Nc1ccc(S(=O)(=O)n2ccc(-c3ccc4c(c3)CCC(C)(C)O4)n2)cc1	no
O=C1NN(C(=O)c2ccc(Cl)cc2)C(c2ccccc2)=N/C1=C\c1cn(-c2ccccc2)nc1-c1ccccc1	no
CCc1cnc(=S)n(-c2ccccc2)c1	no
Cc1ccc(-c2cc3nc(-c4ccccc4)nc(C(Cl)Cl)n3n2)cc1	no
COc1cc(C2CC(c3ccc4c(c3)OCO4)=NN2C(C)=O)cc(OC)c1OC (stereo not given)	no
CCC1=CCC[C@@]2(C)CCC[C@@]3(C)CCCC(C)(C)[C@]1([O-])[O+]32	no
CN(CCCCCl)P(=O)(OCc1ccc([N+](=O)[O-])o1)C(F)(F)C[C@H](NC(=O)CNC(=O)c1ccc(N=[N+]=[N-])cc1)C(=O)NCCc1ccc(O)cc1 (stereo not given in full)	yes
Nc1cccc(-c2nc3sccn3c2-c2ccnc(NCCCNS(=O)(=O)c3cccc4ccccc34)n2)c1	no
CCCCOc1ccc(/C=C2/SC(N3CCOCC3)=NC2=O)cc1OCC	no
C=CCn1cc(-c2nc3ccccc3s2)c2cc(-c3ccc4c5c(cccc35)C(=O)N(CCN3CCNCC3)C4=O)ccc21	yes
N#Cc1c(-c2ccccc2)cc(-c2ccccc2)n(CC(=O)NO)c1=O	yes
CC1CCC(C)N(C)C1 (stereo not given)	no
CC1=C(C#N)C(=O)NC(C)C1 (stereo not given)	no
C=C1c2nc3ccccc3n2C=C(c2ccc(Cl)cc2)N1Cc1ccccc1	no
CCOC(=O)/C(C#N)=C1/C(=O)Nc2ccccc21	no
Cc1[nH]c2ccc(F)cc2c1CCNC(=O)C1CCN(C(=O)c2ccccc2)C1 (stereo not given)	no
COC(=O)c1cccc2c1N(C)c1c(cccc1C(=O)OC)CC2	no
COc1ccc(C(=O)N2NC(=O)/C(=C/c3ccc(Br)cc3)N=C2c2ccccc2)cc1	no
COC1=C(OC)C(=O)C(CCCCCCCCCC[P+](c2ccccc2)(c2ccccc2)c2ccccc2)=C(C)C1=O	yes
CC(NNC(C)c1ccccc1)c1ccccc1 (stereo not given)	no
O=C1/C(=C/c2ccc([N+](=O)[O-])cc2)CN(C(=O)CCN2CCC(=NO)CC2)C/C1=C\c1ccc([N+](=O)[O-])cc1	yes
Cc1ccc(S(=O)(=O)NC(=O)n2cc(-c3ccncc3)c(-c3ccc(Cl)c(O)c3)n2)cc1	no
COc1cccc(/C=C2\Oc3cc(OCCCN4CCCC4)ccc3C2=O)c1OC	no
C=C(C)[C@@H]1CC[C@]2(C(=O)N3CCNCC3)CC[C@]3(C)[C@H](CC[C@@H]4[C@@]5(C)C/C(=C/c6ccncc6)C(=O)C(C)(C)[C@@H]5CC[C@]43C)[C@@H]12	no
CC12CCC3C4(C)COC(c5ccccc5Cl)OC4CCC3(C)C1CC(C1=CCOC1=O)O2 (stereo not given)	no
CC(C)(C)Nc1c(-c2cccs2)nc2ncccn12	no

---

tested on: HS 578T breast; assay: NCI-60 one-dose screen, 48 h (100 = growth as untreated, 0 = no growth, -100 = all killed); details: 10 µM unless noted
About 83,000 compounds went through this panel and 20% of them were active in at least one assay; those are over-represented in the sample as a whole.
This listing pairs molecules with measured growth.
METRIC: growth (%)

                                    molecule  metric  display_unit  reported_value
 0  COc1cc(NC(N)=NCCC(C)(C)c2ccc(C(F)(F)F)cc2)ncc1C#N  growth             %              63
 1  Cc1nc2c3c(ncn2n1)Oc1c(c(=O)[nH]c2ccccc12)C3c1ccc(Cl)cc1 (stereo unspecified)  growth             %            99.7
 2  CCOC(=O)c1c(/N=C2\SC(=O)/C(=C\C(=O)OC)N2NC)sc2c1CCN(C(=O)OCC)C2  growth             %             103
 3  COc1ccc(-c2c(N)n[nH]c2-c2cc(OC)c(OC)c(OC)c2)cc1  growth             %           -8.33
 4  O=C(/C=C/c1cc(-c2ccc3c(c2)OCO3)n[nH]1)c1ccc2c(c1)OCO2  growth             %            95.2
 5  c1ccc(-c2cn(-c3ccccc3)c(-c3ccccc3)n2)cc1  growth             %            87.1
 6  COc1ccc(Nc2nn3c(C)cc(C)nc3c2C(=O)Nc2ccc(C)cc2)c(OC)c1  growth             %             105
 7              NNc1cccc(/C=C/c2ccccc2)cc1=O  growth             %            78.5
 8             CCN(CC)CCCNc1nccc2ccc(Cl)cc12  growth             %             109
 9  O=[N+]([O-])c1ccc(C(c2ccccc2)c2ccccc2)cc1  growth             %             109
10  COc1cccc(/C=C/C(=O)Nc2cc(OC)c3c(c2)OCO3)c1  growth             %            98.8
11  CN(C[C@H]1Cc2c(cccc2N2CCN(c3ncccn3)CC2)CN1)[C@H]1CCCc2cccnc21  growth             %            73.1
12  CCOC(=O)C1C(=O)C=C(c2ccc(OC)cc2)CC1c1sc(N(C)Cc2ccccc2)nc1Cl (stereo unspecified)  growth             %            49.2
13   Cc1ccc(Cc2c(C=O)nc(N)[nH]c2=O)c2ccccc12  growth             %             109
14  COc1cc2c(cc1O)CCN1C[C@@H](CC(C)C)[C@@H](O)C[C@@H]21  growth             %             114
15  CN1C(=O)N(C)C2C1NN=c1s/c(=C\c3cccnc3)c(=O)n12 (stereo unspecified)  growth             %            84.8
16  COc1cc(-c2nn(-c3cccc(NC(=O)Nc4cccc(C(F)(F)F)c4)c3)cc2-c2ccncc2)ccc1Cl  growth             %           -13.7
17  S=c1[nH]nc(-c2cc3ccc2CCc2ccc(cc2)CC3)n1-c1ccccc1  growth             %             116
18  S=c1[nH]nc(-c2cc3ccc2CCc2ccc(cc2)CC3)n1C1CC1  growth             %             101
19  O=C(Oc1ccccc1[N+](=O)[O-])C1CCCN1C(=O)OCc1ccccc1 (stereo unspecified)  growth             %             112
20               Clc1ccccc1-c1nc2ccccc2[nH]1  growth             %             113
